Data origin, for the record: paper PMC4336329

# target_under_test: human ether-à-go-go-related gene (hERG) potassium channel (human, UniProt Q12809);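 further: peak tail current of the secondary pulse compared with the same well before compound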
# Sequence (Q12809 whole entry, looked up): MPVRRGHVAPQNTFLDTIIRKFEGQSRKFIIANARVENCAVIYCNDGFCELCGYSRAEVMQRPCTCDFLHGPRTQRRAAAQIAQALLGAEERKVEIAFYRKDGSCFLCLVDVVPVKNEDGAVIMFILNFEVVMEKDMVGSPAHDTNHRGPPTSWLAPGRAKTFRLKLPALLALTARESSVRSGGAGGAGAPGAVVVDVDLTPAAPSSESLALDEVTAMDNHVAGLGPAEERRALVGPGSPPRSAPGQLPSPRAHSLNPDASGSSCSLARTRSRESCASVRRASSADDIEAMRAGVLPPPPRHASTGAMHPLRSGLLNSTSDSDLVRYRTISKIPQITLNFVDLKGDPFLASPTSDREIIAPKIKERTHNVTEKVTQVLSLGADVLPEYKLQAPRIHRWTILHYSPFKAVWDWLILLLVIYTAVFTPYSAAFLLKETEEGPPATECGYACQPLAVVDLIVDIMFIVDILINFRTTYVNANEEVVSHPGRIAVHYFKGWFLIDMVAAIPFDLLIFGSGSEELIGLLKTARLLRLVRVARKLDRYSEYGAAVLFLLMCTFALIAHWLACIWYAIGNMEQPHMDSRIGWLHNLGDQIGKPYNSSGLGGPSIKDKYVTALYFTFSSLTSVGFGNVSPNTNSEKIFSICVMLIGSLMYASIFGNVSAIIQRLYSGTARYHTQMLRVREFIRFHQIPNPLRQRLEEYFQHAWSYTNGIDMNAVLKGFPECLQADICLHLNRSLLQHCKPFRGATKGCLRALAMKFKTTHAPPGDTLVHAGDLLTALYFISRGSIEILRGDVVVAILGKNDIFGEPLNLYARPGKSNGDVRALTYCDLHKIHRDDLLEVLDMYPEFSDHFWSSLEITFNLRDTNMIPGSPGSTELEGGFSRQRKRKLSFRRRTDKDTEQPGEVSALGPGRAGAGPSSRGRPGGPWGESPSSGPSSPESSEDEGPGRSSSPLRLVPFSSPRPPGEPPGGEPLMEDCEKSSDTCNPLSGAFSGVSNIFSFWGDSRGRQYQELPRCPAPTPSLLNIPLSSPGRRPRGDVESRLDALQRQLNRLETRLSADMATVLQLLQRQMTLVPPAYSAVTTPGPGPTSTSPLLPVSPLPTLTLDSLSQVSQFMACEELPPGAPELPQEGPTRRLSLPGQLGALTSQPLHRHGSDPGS
# test_description: primary screen, population patch clamp on CHO cells stably expressing hERG; higher = less effect of the substance
In all, about 310,000 compounds went through this assay and about 14,000 (4.5%) showed an effect of 50% or more. Effects have a minus sign here. The full list was thinned out, with strong results kept by preference.
Task for the reader: assign each of the following molecules its reported hERG current change (%, negative = inhibition) at 10uM.
Numbers only; they are read as %.

Measured hERG current change (%, negative = inhibition) at 10uM, C=CCNC(=O)C1CCN(c2cc(C)nc(-c3ccccc3)n2)CC1 : -58.2

Measured hERG current change (%, negative = inhibition) at 10uM, Cc1cc(C)c2cc(CN(CCO)C(=O)Nc3ccc(Cl)cc3)c(=O)[nH]c2c1 : -1.76

Measured hERG current change (%, negative = inhibition) at 10uM, O=C(N=C1SC2CS(=O)(=O)CC2N1Cc1ccc(F)cc1)C1CCCO1 (stereo not shown) : -5.58

Measured hERG current change (%, negative = inhibition) at 10uM, COc1ccccc1NC(=O)N(CCN(C)C)Cc1cc2cc(C)ccc2[nH]c1=O : -50.2

Measured hERG current change (%, negative = inhibition) at 10uM, Cc1cc(N2CCC(C(=O)NC3CCCCC3)CC2)nc(-c2ccccc2)n1 : -49.6

Measured hERG current change (%, negative = inhibition) at 10uM, COC1=CC(=O)C[C@@H](C)[C@]12Oc1c(Cl)c(OC)cc(OC)c1C2=O : -9.99

Measured hERG current change (%, negative = inhibition) at 10uM, COc1ccc(/C(O)=C2/C(=O)C(=O)N(CCCN3CCOCC3)C2c2ccc(C(C)C)cc2)cc1 (stereo not shown) : 24.6

Measured hERG current change (%, negative = inhibition) at 10uM, Cc1cc(N2CCC(C(=O)NCC3CC3)CC2)nc(-c2ccccc2)n1 : -73.1

Measured hERG current change (%, negative = inhibition) at 10uM, CCOC(=O)CCSCC(=O)Nc1cc(C)on1 : -3.91

Measured hERG current change (%, negative = inhibition) at 10uM, O=C1CCCC(O)=C1N=Nc1c(Cl)cc(Cl)cc1Cl : 7.14

Measured hERG current change (%, negative = inhibition) at 10uM, OC1CCCN(CC(O)COc2ccc(-c3ccccc3)cc2)C1 (stereo not shown) : -52.9

Measured hERG current change (%, negative = inhibition) at 10uM, CC1CCCN(CC(O)COc2ccc(Cl)cc2)C1.Cl (stereo not shown) : -69.2

Measured hERG current change (%, negative = inhibition) at 10uM, O=C(NCc1ccccn1)Nc1ccccc1F : 13.5

Measured hERG current change (%, negative = inhibition) at 10uM, CC(=O)c1cccc(NC(=O)CCNC(=O)c2ccccc2Cl)c1 : 11.4

Measured hERG current change (%, negative = inhibition) at 10uM, Cc1oc(-c2cccs2)nc1CN1CCC(C(=O)N2CCCC2)CC1 : -11.2

Measured hERG current change (%, negative = inhibition) at 10uM, CNC(=O)CCN(Cc1ccco1)S(=O)(=O)c1ccc(OC)c(OC)c1 : 14.1

Measured hERG current change (%, negative = inhibition) at 10uM, Cc1cc(=O)[nH]c2c(C)cc(S(=O)(=O)N3CCCCC3)cc12 : 4.69

Measured hERG current change (%, negative = inhibition) at 10uM, Cc1cc(N2CCC(C(=O)Nc3ccc(F)cc3)CC2)nc(-c2ccccc2)n1 : -32.9

Measured hERG current change (%, negative = inhibition) at 10uM, CC(=O)c1ccc(OCC(O)CN2CCCC(C)C2)cc1.Cl (stereo not shown) : -1.2

Measured hERG current change (%, negative = inhibition) at 10uM, COc1ccccc1C(=O)NCC(=O)N=Nc1c(O)n(C(C)C)c2ccccc12 : -7.32

Measured hERG current change (%, negative = inhibition) at 10uM, CC1CC(=O)Nc2ccccc2N1S(=O)(=O)c1cccc(F)c1 (stereo not shown) : 9.89

Measured hERG current change (%, negative = inhibition) at 10uM, COc1ccc(CNC(=O)C2CCN(S(=O)(=O)c3ccc4c(c3)NC(=O)CO4)CC2)cc1 : 16.7

Measured hERG current change (%, negative = inhibition) at 10uM, COc1ccc(C2c3c(oc4ccccc4c3=O)C(=O)N2CCCN2CCOCC2)cc1 (stereo not shown) : -7.15

Measured hERG current change (%, negative = inhibition) at 10uM, CN1C(=O)N(C)c2ccc(Br)c3cccc1c23 : 23.5

Measured hERG current change (%, negative = inhibition) at 10uM, COc1ccccc1NC(=S)N(Cc1ccco1)Cc1cc2cc(C)ccc2[nH]c1=O : 3.67

Measured hERG current change (%, negative = inhibition) at 10uM, O=C1CC(N2CCSCC2)C(=O)N1c1cccc(Br)c1 (stereo not shown) : -3.54

Measured hERG current change (%, negative = inhibition) at 10uM, CC1CCCN(C(=O)COc2ccc(-c3ccccc3)cc2)C1 (stereo not shown) : -35.5

Measured hERG current change (%, negative = inhibition) at 10uM, Cc1oc(-c2cccs2)nc1CN1CCC(c2ccccc2)CC1 : -66.5

Measured hERG current change (%, negative = inhibition) at 10uM, C=CCNC(=O)C1CCN(c2nc(C)cc(-c3ccccc3)n2)CC1 : -51.3

Measured hERG current change (%, negative = inhibition) at 10uM, C#CCNC(=O)C1CCN(c2cc(C)nc(-c3ccccc3)n2)CC1 : -40.7

Measured hERG current change (%, negative = inhibition) at 10uM, COc1ccc2[nH]c3c(c2c1)CCN1C(=O)N([C@@H](C)C(=O)NCc2ccccc2OC)C(=O)[C@]31C : -17.2
